Overview of recorded pIC50 for various compounds
# System: SK-BR-3
# experiment notes: Antiproliferative activity against human SK-BR-3 cells assessed as cell viability inhibition rate incubated for 72 hr by MTT assay
# Type: functional, cell-based
# condition set: SK-BR-3, 72 h
The quantity pIC50 is defined as the negative base-10 logarithm of the molar concentration.

Sample answers from the record:
>>> experimental_value("CC(C)C(C)NC(=O)[C@H]1C[C@H](c2ccccc2)CN1C(=O)c1cc(C2CC2)c(O)cc1O (some centres not stated)")
6.10
>>> experimental_value("O=C(NCc1ccccc1)[C@H]1C[C@H](c2ccccc2)CN1C(=O)c1cc(C2CC2)c(O)cc1O")
6.51
>>> experimental_value("COc1ccc(CNC(=O)[C@H]2C[C@H](c3ccccc3)CN2C(=O)c2cc(C3CC3)c(O)cc2O)cc1")
6.20

Give pIC50 for COc1ccc(CNC(=O)[C@H]2C[C@H](c3ccccc3)CN2C(=O)c2cc(C(C)C)c(O)cc2O)cc1
6.14

Give pIC50 for O=C(NCc1ccccc1Cl)[C@H]1C[C@H](c2ccccc2)CN1C(=O)c1cc(C2CC2)c(O)cc1O
6.48

Give pIC50 for CC(C)c1cc(C(=O)N2C[C@@H](c3ccccc3)C[C@@H]2C(=O)NCc2ccccc2)c(O)cc1O
6.57

Give pIC50 for COc1ccc(C(C)NC(=O)[C@H]2C[C@H](c3ccccc3)CN2C(=O)c2cc(C3CC3)c(O)cc2O)cc1 (some centres not stated)
6.35

Give pIC50 for CC(NC(=O)[C@H]1C[C@H](c2ccccc2)CN1C(=O)c1cc(C2CC2)c(O)cc1O)c1ccccc1 (some centres not stated)
6.20

Give pIC50 for CCOCCCNC(=O)[C@H]1C[C@H](c2ccccc2)CN1C(=O)c1cc(C2CC2)c(O)cc1O
6.13

Give pIC50 for COCCN(CCOC)C(=O)[C@H]1C[C@H](c2ccccc2)CN1C(=O)c1cc(C2CC2)c(O)cc1O
6.12

Give pIC50 for CC(C)CNC(=O)[C@H]1C[C@H](c2ccccc2)CN1C(=O)c1cc(C(C)C)c(O)cc1O
6.19

Give pIC50 for O=C(NCCCN1CCOCC1)[C@H]1C[C@H](c2ccccc2)CN1C(=O)c1cc(C2CC2)c(O)cc1O
6.98

Give pIC50 for CCOCCCNC(=O)[C@H]1C[C@H](c2ccccc2)CN1C(=O)c1cc(C(C)C)c(O)cc1O
6.03

Give pIC50 for CC(C)c1cc(C(=O)N2C[C@@H](c3ccccc3)C[C@@H]2C(=O)NC(C)C(C)C)c(O)cc1O (some centres not stated)
6.13

Give pIC50 for CC(C)CNC(=O)[C@H]1C[C@H](c2ccccc2)CN1C(=O)c1cc(C2CC2)c(O)cc1O
6.12

Give pIC50 for CC(C)c1cc(C(=O)N2C[C@@H](c3ccccc3)C[C@@H]2C(=O)NCc2ccccc2F)c(O)cc1O
6.34

Give pIC50 for CC(C)c1cc(C(=O)N2C[C@@H](c3ccccc3)C[C@@H]2C(=O)NCc2ccccc2Cl)c(O)cc1O
6.24
